The origin of these recorded values is the RNAGym collection of RNA variant scans (doi:10.1073/pnas.2313332121).

B1: TPR 5TU (parent)
chain: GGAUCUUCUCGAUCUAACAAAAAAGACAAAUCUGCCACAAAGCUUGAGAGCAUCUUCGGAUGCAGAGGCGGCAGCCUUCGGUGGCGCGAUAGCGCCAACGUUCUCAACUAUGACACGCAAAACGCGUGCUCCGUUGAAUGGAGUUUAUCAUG

Variants of: B1
testMethodNotes: polymerase ribozyme fitness, log enrichment relative to wild type (log ratio); higher = more active; in vitro selection for triplet polymerase activity
Variants at the floor of the assay were thinned out.
readoutName: polymerase ribozyme fitness (log ratio)
// no unit, no text: just the number

For the variant C85U A98C G124C , report polymerase ribozyme fitness (log ratio).
-1.37

Look up and report measured polymerase ribozyme fitness (log ratio) for this entry: A12U C38G G59U
-0.492

Please look at this variant and report its polymerase ribozyme fitness (log ratio): G11U A52G A60G G83U
-3.33

Report polymerase ribozyme fitness (log ratio), nothing else, for this variant: A12G A52C C93U A98U G124A
-2

Name the recorded polymerase ribozyme fitness (log ratio) of the item U33A A40C A41U C93G in your answer.
-3.86

Please list polymerase ribozyme fitness (log ratio) recorded for the variant U33G G59A G94U
-3.39
